Data provenance: patent EP1382597A2

Please provide measured pIC50 for the entries that follow.
Target: GR (Homo sapiens, UniProt P04150)
Construct: expressed in transfected cells; host or cells: CV-1 cells, transient transfection
Sequence (P04150 whole entry): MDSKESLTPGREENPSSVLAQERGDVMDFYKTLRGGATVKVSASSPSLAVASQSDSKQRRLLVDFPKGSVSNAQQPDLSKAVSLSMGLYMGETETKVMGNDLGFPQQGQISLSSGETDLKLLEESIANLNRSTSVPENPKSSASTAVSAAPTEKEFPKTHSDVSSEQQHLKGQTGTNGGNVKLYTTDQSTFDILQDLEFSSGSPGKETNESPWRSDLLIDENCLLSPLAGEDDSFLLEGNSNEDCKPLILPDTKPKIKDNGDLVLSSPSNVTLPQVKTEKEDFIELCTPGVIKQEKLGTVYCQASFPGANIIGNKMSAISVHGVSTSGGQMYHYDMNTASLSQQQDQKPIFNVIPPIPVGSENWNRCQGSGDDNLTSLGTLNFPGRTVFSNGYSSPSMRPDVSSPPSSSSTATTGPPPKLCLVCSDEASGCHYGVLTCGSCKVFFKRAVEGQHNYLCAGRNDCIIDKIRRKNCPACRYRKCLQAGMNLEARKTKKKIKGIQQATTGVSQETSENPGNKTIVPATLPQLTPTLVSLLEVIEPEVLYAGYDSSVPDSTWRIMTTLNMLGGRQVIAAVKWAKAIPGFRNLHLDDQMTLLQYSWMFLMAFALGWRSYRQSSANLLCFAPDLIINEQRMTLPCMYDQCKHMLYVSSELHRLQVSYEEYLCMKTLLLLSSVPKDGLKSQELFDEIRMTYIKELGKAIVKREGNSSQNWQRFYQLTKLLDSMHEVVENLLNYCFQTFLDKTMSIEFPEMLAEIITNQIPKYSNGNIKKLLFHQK
Assay: Co-transfection assay, GR antagonist activity
Format: cell-based
Give bare numbers, as −log10 of the molar value.

{"Compound": "CC1=CC(C)(C)Nc2ccc3c(c21)C(c1ccc(Cl)cc1)Oc1ccccc1-3 (racemic)", "pIC50": 5.88}

Then there is this compound:
For this compound ( CC1=CC(C)(C)Nc2ccc(-c3cccc(C#N)c3)cc21 ), measured pIC50 is 5.57

---

Please provide measured EC50 for the entries that follow.
Target: human PR-B (Homo sapiens, UniProt P06401)
Construct: expressed in transfected cells; host or cells: CV-1 cells (African green monkey kidney fibroblasts), transient transfection
Sequence (P06401 1-933): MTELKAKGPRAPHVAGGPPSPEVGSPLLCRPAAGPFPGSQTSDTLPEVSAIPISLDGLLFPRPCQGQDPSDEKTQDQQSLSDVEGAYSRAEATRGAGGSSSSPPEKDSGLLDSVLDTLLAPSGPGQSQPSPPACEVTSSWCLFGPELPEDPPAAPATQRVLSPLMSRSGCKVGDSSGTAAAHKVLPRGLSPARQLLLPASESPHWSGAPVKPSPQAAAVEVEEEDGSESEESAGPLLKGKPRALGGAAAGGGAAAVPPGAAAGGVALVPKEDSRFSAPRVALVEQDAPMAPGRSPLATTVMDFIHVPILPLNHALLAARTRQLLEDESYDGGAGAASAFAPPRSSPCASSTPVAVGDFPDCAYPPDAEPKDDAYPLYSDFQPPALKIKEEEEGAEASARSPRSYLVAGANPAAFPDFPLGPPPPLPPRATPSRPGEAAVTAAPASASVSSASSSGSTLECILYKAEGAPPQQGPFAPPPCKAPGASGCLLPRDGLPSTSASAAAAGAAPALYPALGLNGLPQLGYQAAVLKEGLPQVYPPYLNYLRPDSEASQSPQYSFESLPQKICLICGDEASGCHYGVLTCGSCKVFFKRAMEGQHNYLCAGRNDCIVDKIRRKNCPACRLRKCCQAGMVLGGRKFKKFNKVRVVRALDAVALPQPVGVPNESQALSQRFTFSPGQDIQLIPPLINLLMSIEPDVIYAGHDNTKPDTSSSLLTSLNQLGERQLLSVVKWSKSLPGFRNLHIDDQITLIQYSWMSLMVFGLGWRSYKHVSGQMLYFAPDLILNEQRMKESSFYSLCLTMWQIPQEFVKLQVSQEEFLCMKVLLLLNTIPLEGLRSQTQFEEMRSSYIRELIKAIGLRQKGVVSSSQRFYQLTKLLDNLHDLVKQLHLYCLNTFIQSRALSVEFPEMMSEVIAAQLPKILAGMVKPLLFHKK
Assay: Co-transfection assay, PR agonist activity;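 also: CV-1 cells (African green monkey kidney) co-transfected with receptor plasmid and hormone-responsive firefly luciferase reporter, agonism read as compound-dependent rise in luciferase signal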
Type: cell-based

{"Compound": "CC1CC(C)(C)Nc2cc3[nH]c(=O)cc(C(F)(F)F)c3cc21 (racemic)", "Val": "> 10 µM"}

For each of the compounds below, state EC50.
1. CC1=CC(C)(C)Nc2ccc(-c3cccc(F)c3F)cc21
2. C=C1CC(C)(C)Nc2ccc3c(c21)C(c1cccc(F)c1)Oc1ccccc1-3 (racemic)
3. CC1=CC(C)(C)Nc2ccc3c(c21)C(c1ccsc1)Oc1ccccc1-3 (racemic)
4. C[C@H]1C(=O)C(C)(C)Nc2ccc3c(c21)O[C@H](c1ccccc1)c1ccccc1-3 (relative stereo)

Response line:
["> 10 µM", "> 10 µM", "0.073 µM", "> 10 µM"]
